Data credit: PubChem BioAssay

Readings of growth inhibition for the listed compounds
- procedure summary: inhibition of 3D7 malaria parasite growth – strain 3D7 (AID 2306);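 further: 0% = DMSO wells and 100% = chloroquine plus artemisinin control wells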
- test context: P. falciparum 3D7 erythrocytic growth, LDH absorbance, 72 h; at 2 µM; stronger effect = higher value
Dear colleague, please return just the value in %, with no unit written.

Check out these entries, answers already filled in.
- compound: "COc1cccc(C(NC(=O)c2ccccc2)c2ccc3cccnc3c2O)c1 (stereo unspecified)"
  growth inhibition [%]: 89
- compound: "O=[N+]([O-])c1cccc(CNCC2CCN(CC3CCCCC3)CC2)c1"
  growth inhibition [%]: 90
- compound: "Cc1cc(NC(=O)c2cccs2)ccc1OC1CCN(Cc2ccccc2)CC1"
  growth inhibition [%]: 95

The measured growth inhibition associated with "Oc1ccc2nc(Nc3ccccc3)nc(NCCc3ccccc3)c2c1" reads 100

The measured growth inhibition associated with "COc1ccc2nccc(NN=Cc3ccc(N(C)C)cc3)c2c1" reads 101
